assayed.target: IgG
assay.details: SPR, IgG immobilised on CM5 chip, compound as analyte; value from the legend of the grade (++++ = Kd <100 nM)
pKd: −log10 of the molar value. Bridges are numbered along the chain shown (N, C = ends). [ ]: non-standard residue; d: D form. Pro(4S-NH2) = N[C@@H]1CN[C@H](C(=O)O)C1
Parameter pKd: see the listing below.
quantity.kind: pKd

binder="cyclo([Pro(4S-NH2)]ACSWHLGELVWCT[dP]) (disulfide 3-13; SMILES CC(C)C[C@@H]1NC(=O)[C@H](Cc2c[nH]cn2)NC(=O)[C@H](Cc2c[nH]c3ccccc23)NC(=O)[C@H](CO)NC(=O)[C@@H]2CSSC[C@H](NC(=O)[C@H](Cc3c[nH]c4ccccc34)NC(=O)[C@H](C(C)C)NC(=O)[C@H](CC(C)C)NC(=O)[C@H](CCC(=O)O)NC(=O)CNC1=O)C(=O)N[C@@H]([C@@H](C)O)C(=O)N1CCC[C@@H]1C(=O)N1C[C@@H](N)C[C@H]1C(=O)N[C@@H](C)C(=O)N2) [Intermediate 15]" quantity_kind=pKd test_value="> 7.00"
binder="cyclo([Pro(4S-NH2)]DCAWHLG[N5‑methylglutamine]LVWCT[dP]) (disulfide 3-13) [Intermediate 22]" quantity_kind=pKd test_value="> 7.00"
